These measurements were taken from PubChem BioAssay.

EXPERIMENT SUMMARY: basal S. cerevisiae growth modulation, no modifier, primary screen, OD600, strain BY4716, 24 h, basal condition (AID 1173)
PROTOCOL CONDITIONS: OD600, 24 h, higher = more signal, called active from +8 up or from −8 down
Classify as follows. Reported z-score greater than or equal to 0.03: label 1. Reported z-score below: label 0.

1. O=C1OCCC/C=C\[C@H]2OC34C=CCN(Cc5ccccc5)C(=O)[C@H]3N(CCO)C(=O)[C@@H]4C12 (stereo partly drawn) | label 0
2. COc1c(C)cc(-c2nc(-c3ccccc3)c3c(c2C)CO[Si]3(C(C)C)C(C)C)cc1C | label 1
3. C=C(CCCC)C(=O)CC[C@H](OC(=O)c1ccccc1-c1ccccc1C(=O)O)c1cccc(OCCO)c1 | label 0
4. COCCOC(=O)N1C(=O)[C@@]2(c3cc(C#CC4(O)CCCCCC4)ccc31)[C@H](C(N)=O)[C@H]1C(=O)O[C@H](c3ccccc3)[C@H](c3ccccc3)N1[C@@H]2c1ccc(OCCO)cc1 | label 1
5. CC(C)(C)OC(=O)CC[C@]1(C(N)=O)N=C(c2ccc(OCCCO)cc2)O[C@H]1c1ccccc1N=[N+]=[N-] | label 1
6. COc1ccc(NN2C(C(O)c3ccc(F)cc3)C=CC3C(=O)N(C4CCCCC4)C(=O)C32)cc1 (stereo not drawn) | label 1
7. CC1CC/C=C\[C@H]2OC34C=CCN(C(C)C)C(=O)[C@H]3N(C(C)CO)C(=O)[C@@H]4C2C(=O)O1 (stereo partly drawn) | label 1
8. [N-]=[N+]=NCc1ccccc1C[C@]1(C(=O)N2CCCCC2)COC(c2ccc(OCCCO)cc2)=N1 | label 0
